Compiled notes: published IC50 values involving UniProt:P21396.
Quick note: give the figure in µM, leave out the unit.

[
  {
    "molecule": "Cl.S=C(Nc1ccccc1)N1N=C(c2ccc(Cl)cc2)CC1c1ccc[nH]1 (stereo unspecified)",
    "IC50 (µM)": 59.3
  },
  {
    "molecule": "Cc1ccccc1NC(=S)N1N=C(c2ccccc2O)CC1c1ccc(O)cc1 (stereo unspecified)",
    "IC50 (µM)": 189
  },
  {
    "molecule": "Cc1cc(=O)oc2cc3oc4c(c3cc12)CCC4",
    "IC50 (µM)": 11.9
  },
  {
    "molecule": "OCCn1nnc(-c2ccc(OCc3ccccc3)cc2)n1",
    "IC50 (µM)": 64
  }
]

Print UniProt:P21396 IC50 for O=C1c2ccccc2-c2nnc(-c3cccs3)cc21 .
1

State IC50 (UniProt:P21396) of NNc1nc2cc(Cl)c(Cl)cc2nc1Cc1ccccc1 .
0.0076

----------
Kindly find below IC50 information for Amine oxidase [flavin-containing] A (Rattus norvegicus, UniProt P21396) taken from the literature.
Express your answer in µM, writing the number without its unit.

Field: example entries. Status: answers known.
[
  {
    "molecule": "O=C1c2ccccc2-c2nnc(-c3cccc(F)c3)cc21",
    "system-under-test": "Amine oxidase [flavin-containing] A (Rattus norvegicus, UniProt P21396)",
    "recorded-endpoint": "IC50",
    "numeric-result": 10
  },
  {
    "molecule": "O=C(NCCCN1CCOCC1)c1cncc(Br)c1",
    "system-under-test": "Amine oxidase [flavin-containing] A (Rattus norvegicus, UniProt P21396)",
    "recorded-endpoint": "IC50",
    "numeric-result": 23
  },
  {
    "molecule": "Cc1ccc(NC(=S)N2N=C(c3ccccc3O)CC2c2ccccc2O)cc1 (stereo not given)",
    "system-under-test": "Amine oxidase [flavin-containing] A (Rattus norvegicus, UniProt P21396)",
    "recorded-endpoint": "IC50",
    "numeric-result": 400
  },
  {
    "molecule": "NC(=O)CNc1cc(=O)oc2cc(OCc3cccc(Cl)c3)ccc12",
    "system-under-test": "Amine oxidase [flavin-containing] A (Rattus norvegicus, UniProt P21396)",
    "recorded-endpoint": "IC50",
    "numeric-result": 0.0955
  },
  {
    "molecule": "CNCc1cc(=O)oc2cc(OCc3ccc4c(c3)OCO4)ccc12",
    "system-under-test": "Amine oxidase [flavin-containing] A (Rattus norvegicus, UniProt P21396)",
    "recorded-endpoint": "IC50",
    "numeric-result": 5.4
  }
]

State its IC50 for this molecule: Cc1cc2ccc(OCc3cccc(Cl)c3)cc2oc1=O
12.6

Consider the molecule Cc1cc2ccc(OCc3ccccc3)cc2oc1=O and give its recorded IC50.
5.5

Quick one: give measured IC50 for Cn1c(N/N=C(/C=C/c2ccc(Cl)cc2)c2ccccc2)nc2ccccc2c1=O
3.56

Specify reported IC50 for the molecule shown: CNC(=O)/C=C1/COc2cc(OS(=O)(=O)c3cccc(C#N)c3)ccc21
0.019

Consider the molecule CCNC(=O)/C=C1/COc2cc(OS(=O)(=O)c3cccc(Cl)c3)ccc21 . State its measured IC50.
4.2

----------
Here's a roundup of IC50 values tested on Amine oxidase [flavin-containing] A (Rattus norvegicus, UniProt P21396), taken from various published works.
- system-under-test: Amine oxidase [flavin-containing] A (Rattus norvegicus, UniProt P21396)
- Sequence (P21396 whole entry): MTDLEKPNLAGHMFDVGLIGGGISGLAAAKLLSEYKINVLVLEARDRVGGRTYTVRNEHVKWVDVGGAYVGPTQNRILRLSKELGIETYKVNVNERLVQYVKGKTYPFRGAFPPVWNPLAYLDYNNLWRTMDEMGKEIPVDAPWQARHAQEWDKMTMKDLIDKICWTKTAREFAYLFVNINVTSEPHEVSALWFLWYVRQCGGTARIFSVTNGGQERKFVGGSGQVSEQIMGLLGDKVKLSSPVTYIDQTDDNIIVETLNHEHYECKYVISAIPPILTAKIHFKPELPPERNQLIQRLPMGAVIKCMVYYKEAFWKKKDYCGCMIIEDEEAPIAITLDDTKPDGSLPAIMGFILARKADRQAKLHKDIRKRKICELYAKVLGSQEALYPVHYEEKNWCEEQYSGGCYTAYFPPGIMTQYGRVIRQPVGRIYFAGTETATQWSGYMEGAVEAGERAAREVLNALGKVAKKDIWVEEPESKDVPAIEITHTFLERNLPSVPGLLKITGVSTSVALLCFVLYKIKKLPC
State just the number; it will be interpreted in µM.

Recorded IC50, per entry:
[
  {
    "molecule": "O=C(/C=C/C=C/c1ccc2c(c1)OCO2)N1CCCCC1",
    "IC50 [µM]": 0.404
  },
  {
    "molecule": "O=C(NCCCN1CCOCC1)c1ccc(O)nc1",
    "IC50 [µM]": 56
  },
  {
    "molecule": "O=C1c2ccccc2-c2nnc3c(c21)CCCC3",
    "IC50 [µM]": 50.5
  },
  {
    "molecule": "CC(=O)Nc1cc(=O)oc2cc(OCc3cccc(Cl)c3)ccc12",
    "IC50 [µM]": 0.282
  },
  {
    "molecule": "CC(O)c1cccc2c1S(=O)(=O)c1ccccc1O2 (configuration not stated)",
    "IC50 [µM]": 0.4
  }
]

Report measured IC50; entry is CNc1cncc(NC)c1CN
170

Query IC50 for CNC(=O)/C=C1/COc2cc(OS(=O)(=O)c3cccc(Cl)c3)ccc21
0.041

For the molecule O=C1c2ccccc2-c2nnc3ccccc3c21 , give its reported IC50.
1

Give me measured IC50, please, for this molecule: NC(=O)CNCc1ccc(OCc2ccc(Cl)cc2)cc1
12.4

Determine its reported IC50: COc1ccc(NC(=S)N2N=C(c3ccccc3O)CC2c2ccccc2O)cc1 (configuration not stated)
470

----------
A compilation of published pIC50 results with Amine oxidase [flavin-containing] A (Rattus norvegicus, UniProt P21396).
- system-under-test: Amine oxidase [flavin-containing] A (Rattus norvegicus, UniProt P21396)
- Sequence (P21396 whole entry): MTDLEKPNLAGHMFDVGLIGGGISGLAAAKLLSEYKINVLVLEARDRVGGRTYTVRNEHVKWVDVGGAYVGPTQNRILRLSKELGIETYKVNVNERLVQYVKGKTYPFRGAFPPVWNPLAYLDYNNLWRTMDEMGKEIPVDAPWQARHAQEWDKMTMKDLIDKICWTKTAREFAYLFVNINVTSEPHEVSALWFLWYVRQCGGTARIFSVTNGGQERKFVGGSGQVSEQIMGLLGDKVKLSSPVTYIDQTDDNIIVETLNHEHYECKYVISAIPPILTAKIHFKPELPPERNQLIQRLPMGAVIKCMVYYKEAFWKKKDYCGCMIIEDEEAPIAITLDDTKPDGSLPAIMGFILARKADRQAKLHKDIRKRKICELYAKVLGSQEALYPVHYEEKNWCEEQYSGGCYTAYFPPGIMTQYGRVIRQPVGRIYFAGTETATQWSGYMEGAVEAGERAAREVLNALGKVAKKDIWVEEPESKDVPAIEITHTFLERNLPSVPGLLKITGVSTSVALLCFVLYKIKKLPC
# pIC50: negative log10 of molar concentration; output just the value

Here are 2 molecules together with their reported answers.
[
  {
    "molecule": "C[C@H](NCc1ccc(OCc2ccccc2)cc1)C(N)=O",
    "recorded-endpoint": "pIC50",
    "numeric-result": 4.00
  },
  {
    "molecule": "NCc1ccncc1NC1CCCCCC1",
    "recorded-endpoint": "pIC50",
    "numeric-result": 3.82
  }
]

State its pIC50: CN(C)Cc1cc(=O)oc2cc(OCc3ccccc3)ccc12
4.00

Give pIC50 for COc1ccc(NC(=S)N2N=C(c3ccccc3O)CC2c2ccc(O)cc2)cc1 (configuration not stated)
3.40

Answer with the recorded pIC50 of CCCCOc1ccc(-c2cc3c(nn2)-c2ccccc2C3=O)cc1 only.
5.00

Fill in reported pIC50 for this entry: O=C1c2ccccc2-c2nnc(-c3ccc(F)cc3)cc21
4.51

----------
Collected literature values of pIC50 measured for Amine oxidase [flavin-containing] A (Rattus norvegicus, UniProt P21396).
- system-under-test: Amine oxidase [flavin-containing] A (Rattus norvegicus, UniProt P21396)
- Sequence (P21396 whole entry): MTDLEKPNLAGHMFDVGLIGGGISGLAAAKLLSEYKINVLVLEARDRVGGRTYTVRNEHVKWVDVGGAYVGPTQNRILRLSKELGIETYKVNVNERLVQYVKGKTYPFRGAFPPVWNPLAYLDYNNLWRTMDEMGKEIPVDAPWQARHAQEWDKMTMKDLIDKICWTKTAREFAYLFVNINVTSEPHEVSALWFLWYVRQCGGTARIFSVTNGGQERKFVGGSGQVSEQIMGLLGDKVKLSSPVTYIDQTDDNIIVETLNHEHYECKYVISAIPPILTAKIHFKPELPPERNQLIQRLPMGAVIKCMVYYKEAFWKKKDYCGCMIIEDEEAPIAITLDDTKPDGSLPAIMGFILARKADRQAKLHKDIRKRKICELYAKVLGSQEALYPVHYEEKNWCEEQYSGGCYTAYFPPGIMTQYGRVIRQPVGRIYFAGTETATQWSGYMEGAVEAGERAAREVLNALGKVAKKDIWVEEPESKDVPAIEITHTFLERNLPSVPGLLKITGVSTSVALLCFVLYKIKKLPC
In simple prose, pIC50 is minus the logarithm base ten of a concentration in moles per litre.

Would you please look over these solved cases?
[
  {
    "molecule": "CNCCNc1nc2ccccc2nc1Cc1ccccc1",
    "system-under-test": "Amine oxidase [flavin-containing] A (Rattus norvegicus, UniProt P21396)",
    "pIC50": 7.04
  },
  {
    "molecule": "NC(=S)N1N=C(c2ccccc2O)CC1c1ccc(O)cc1 (stereo unspecified)",
    "system-under-test": "Amine oxidase [flavin-containing] A (Rattus norvegicus, UniProt P21396)",
    "pIC50": 3.33
  },
  {
    "molecule": "COC(=O)C[C@H](NC(=O)c1ccc(NC(=O)C(=O)c2ccccc2NC(C)=O)cc1)C(=O)OC",
    "system-under-test": "Amine oxidase [flavin-containing] A (Rattus norvegicus, UniProt P21396)",
    "pIC50": 7.22
  },
  {
    "molecule": "Cn1c(N2N=C(c3ccccc3)CC2c2ccc(Cl)cc2)nc2ccccc2c1=O (stereo unspecified)",
    "system-under-test": "Amine oxidase [flavin-containing] A (Rattus norvegicus, UniProt P21396)",
    "pIC50": 5.43
  },
  {
    "molecule": "Cc1ccc(C2=NN(c3nc4ccccc4c(=O)n3C)C(c3ccco3)C2)cc1 (stereo unspecified)",
    "system-under-test": "Amine oxidase [flavin-containing] A (Rattus norvegicus, UniProt P21396)",
    "pIC50": 3.39
  }
]

Now let's try a different one.
Identify measured pIC50 associated with COc1ccc(C(/C=C/c2cccs2)=N\Nc2nc3ccccc3c(=O)n2C)cc1
4.57
